pIC50: −log10 of the molar value. Structures can show the parent of a compound that is named as a salt.
Observed pIC50, system human NK1 receptor (Homo sapiens, UniProt P25103).
Measured Endpoint: pIC50

[
  {
    "Compound": "Fc1ccc(C2NCCCC2NCc2cc(-n3nnnc3C(F)(F)F)ccc2OC2CC2)cc1 (racemic) [Example 2, Dihydrochloride]",
    "Measured Endpoint": "pIC50",
    "Result": 9.89
  },
  {
    "Compound": "FC(F)(F)c1nnnn1-c1ccc(OC2CC2)c(CN[C@H]2CCCN[C@H]2c2ccccc2)c1 [Example 1, Dihydrochloride]",
    "Measured Endpoint": "pIC50",
    "Result": 10.10
  }
]

Where these numbers come from: patent US20020052504A1
